- System: HS578T
- Assay Overview: normalised growth rate inhibition (GR value) relative to DMSO control (GR (1 = untreated growth, 0 = cytostasis, <0 = cytotoxic)); higher = less growth inhibition
- Test Settings: 0.37 µM; 72 h
Classification field: enter Condition met for normalised growth rate inhibition values not below 0.7, Condition not met for values below it.

Answered cases to consult:
Cc1cc(C(C)Nc2ccccc2)c2nc(N3CCOCC3)cc(=O)n2c1 (configuration not stated) | Condition met
Cc1cnc(-c2cnc(NCCNc3ccc(C#N)cn3)nc2-c2ccc(Cl)cc2Cl)[nH]1 | Condition met
CC(=O)Nc1cccc(-n2c(=O)n(C3CC3)c(=O)c3c(Nc4ccc(I)cc4F)n(C)c(=O)c(C)c32)c1 | Condition not met
Cc1nc(Nc2ncc(C(=O)Nc3c(C)cccc3Cl)s2)cc(N2CCN(CCO)CC2)n1 | Condition not met
CC[C@H](CO)Nc1nc(NCc2ccccc2)c2ncn(C(C)C)c2n1 | Condition met
CCc1cc(Nc2nccc(-c3c(-c4ccc(OC)c(C(=O)Nc5c(F)cccc5F)c4)nc4ccccn34)n2)c(OC)cc1N1CCC(N2CCN(S(C)(=O)=O)CC2)CC1 | Condition met

Query block: Is normalised growth rate inhibition for O=c1cc(N2CCOCC2)oc2c(-c3cccc4c3sc3ccccc34)cccc12 at or above 0.7?
Result block: Condition met

Query block: Is normalised growth rate inhibition for Cn1cc(C2=C(c3cn(C4CCN(Cc5ccccn5)CC4)c4ccccc34)C(=O)NC2=O)c2ccccc21 at or above 0.7?
Result block: Condition met

Query block: Is normalised growth rate inhibition for CCOc1cc2ncc(C#N)c(Nc3ccc(OCc4ccccn4)c(Cl)c3)c2cc1NC(=O)/C=C/CN(C)C at or above 0.7?
Result block: Condition not met

---

- Test system: MCF10A
- Assay Overview: normalised growth rate inhibition (GR value) relative to DMSO control (GR (1 = untreated growth, 0 = cytostasis, <0 = cytotoxic)); higher = less growth inhibition
- Test Settings: 0.04 µM; 72 h
In this section we review reported normalised growth rate inhibition values for a set of compounds.
// return a plain number; no unit text

As a guide, the following entries are already answered.
O=C(Nc1cccc(Nc2ncc(Br)c(NCCc3cnc[nH]3)n2)c1)N1CCCC1 | 0.95
Cc1ncc(-c2ccnc(Nc3ccc(S(C)(=O)=O)cc3)n2)n1C(C)C | 0.958
N#CC[C@H](C1CCCC1)n1cc(-c2ncnc3[nH]ccc23)cn1 | 0.982
O=C(NOCC1CC1)c1ccc(F)c(F)c1Nc1ccc(I)cc1Cl | 0.661
Cc1cc(C(=O)NOCCO)c(Nc2ccc(I)cc2F)n(C)c1=O | 0.0964

Query block: Name the reported normalised growth rate inhibition value associated with the compound CN(c1ccccc1CNc1nc(Nc2ccc3c(c2)CC(=O)N3)ncc1C(F)(F)F)S(C)(=O)=O
Result block: 0.744

Query block: Name the reported normalised growth rate inhibition value associated with the compound C[C@@H]1C[C@H]2O[C@@H]2/C=C\C=C\C(=O)Cc2c(Cl)c(O)cc(O)c2C(=O)O1
Result block: 0.886

Query block: Name the reported normalised growth rate inhibition value associated with the compound FC(F)c1nc2ccccc2n1-c1nc(N2CCOCC2)nc(N2CCOCC2)n1
Result block: 0.954

Query block: Name the reported normalised growth rate inhibition value associated with the compound C[C@@H](N)c1ccc(C(=O)Nc2ccnc3[nH]ccc23)cc1
Result block: 0.969

Query block: Name the reported normalised growth rate inhibition value associated with the compound Cn1cc(C2=C(c3cn(C4CCN(Cc5ccccn5)CC4)c4ccccc34)C(=O)NC2=O)c2ccccc21
Result block: 1.01

Query block: Name the reported normalised growth rate inhibition value associated with the compound COc1cc(C(=O)NC2CCN(C)CC2)ccc1Nc1ncc2c(n1)N(C1CCCC1)CCC(=O)N2C(C)C
Result block: 0.975

Query block: Name the reported normalised growth rate inhibition value associated with the compound O=c1cc(N2CCOCC2)oc2c(-c3cccc4c3sc3ccccc34)cccc12
Result block: 1.02

Query block: Name the reported normalised growth rate inhibition value associated with the compound COc1cc2ncnc(-n3nc(-c4ccccn4)nc3N)c2cc1OC
Result block: 1.02

Query block: Name the reported normalised growth rate inhibition value associated with the compound CN1CC[C@H](c2c(O)cc(O)c3c(=O)cc(-c4ccccc4Cl)oc23)[C@H](O)C1
Result block: 0.197

Query block: Name the reported normalised growth rate inhibition value associated with the compound N#CC(c1ccnc(NCCc2cccnc2)n1)c1nc2ccccc2s1 (stereo not drawn)
Result block: 0.993

Query block: Name the reported normalised growth rate inhibition value associated with the compound CC1=C(CO)C(=O)O[C@@H]([C@@H](C)[C@H]2CC[C@H]3[C@@H]4C[C@H]5O[C@]56[C@@H](O)C=CC(=O)[C@]6(C)[C@H]4CC[C@]23C)C1
Result block: 0.999

Query block: Name the reported normalised growth rate inhibition value associated with the compound C=CC(=O)Nc1cc2c(Nc3ccc(F)c(Cl)c3)ncnc2cc1OCCCN1CCOCC1
Result block: 0.702

Query block: Name the reported normalised growth rate inhibition value associated with the compound CC(C)(C)c1cnc(CSc2cnc(NC(=O)C3CCNCC3)s2)o1
Result block: 0.921

---

- System: BT20
- Assay Overview: normalised growth rate inhibition (GR value) relative to DMSO control (GR (1 = untreated growth, 0 = cytostasis, <0 = cytotoxic)); higher = less growth inhibition
- Test Settings: 0.04 µM; 72 h
In this section we review reported normalised growth rate inhibition values for a set of molecules.
// return a plain number; no unit text

C=CC(=O)N1CCc2ccc(-n3c(=O)ccc4cnc5ccc(-c6cnn(C)c6)cc5c43)cc21 | 0.669
NC1(c2ccc(-c3nc4ccn5c(=O)[nH]nc5c4cc3-c3ccccc3)cc2)CCC1 | 0.974
Cc1ccc(NC(=O)c2ccc(CN3CCN(C)CC3)cc2)cc1Nc1nccc(-c2cccnc2)n1 | 1

Query block: Hi! What's the reported normalised growth rate inhibition for CN1CC[C@H](c2c(O)cc(O)c3c(=O)cc(-c4ccccc4Cl)oc23)[C@H](O)C1 on BT20?
Result block: 0.324

---

- Test system: HS578T
- Assay Overview: normalised growth rate inhibition (GR value) relative to DMSO control (GR (1 = untreated growth, 0 = cytostasis, <0 = cytotoxic)); higher = less growth inhibition
- Test Settings: 0.37 µM; 72 h
Measured Quantity: normalised growth rate inhibition
// return a plain number; no unit text

COc1cc2ncnc(Nc3ccc(F)c(Cl)c3)c2cc1OCCCN1CCOCC1 | 0.984
NC1(c2ccc(-c3nc4ccn5c(=O)[nH]nc5c4cc3-c3ccccc3)cc2)CCC1 | 0.577
Cc1[nH]c(/C=C2\C(=O)Nc3ccc(S(=O)(=O)N(C)c4cccc(Cl)c4)cc32)c(C)c1C(=O)N1CCN(C)CC1 | 0.949
C=CC(=O)Nc1cc(-n2c(=O)ccc3cnc4ccc(-c5cn[nH]c5)cc4c32)ccc1C | 0.639
O=C(NC1CCNCC1)c1n[nH]cc1NC(=O)c1c(Cl)cccc1Cl | -0.102

Query block: Name the reported normalised growth rate inhibition value associated with the molecule C#Cc1cccc(Nc2ncnc3cc(OCCOC)c(OCCOC)cc23)c1
Result block: 0.957

Query block: Name the reported normalised growth rate inhibition value associated with the molecule CS(=O)(=O)N1CCN(Cc2cc3nc(-c4cccc5[nH]ncc45)nc(N4CCOCC4)c3s2)CC1
Result block: 0.568

Query block: Name the reported normalised growth rate inhibition value associated with the molecule N#CC(c1ccnc(NCCc2cccnc2)n1)c1nc2ccccc2s1 (stereo not drawn)
Result block: 1.02

Query block: Name the reported normalised growth rate inhibition value associated with the molecule CCOc1cc2ncc(C#N)c(Nc3ccc(F)c(Cl)c3)c2cc1NC(=O)/C=C/CN(C)C
Result block: 0.841

Query block: Name the reported normalised growth rate inhibition value associated with the molecule Cn1cnc2c(F)c(Nc3ccc(Br)cc3Cl)c(C(=O)NOCCO)cc21
Result block: 0.471

Query block: Name the reported normalised growth rate inhibition value associated with the molecule CC(C)(C)c1cnc(CSc2cnc(NC(=O)C3CCNCC3)s2)o1
Result block: -0.146

---

- Tested on: HS578T
- Assay Overview: normalised growth rate inhibition (GR value) relative to DMSO control (GR (1 = untreated growth, 0 = cytostasis, <0 = cytotoxic)); higher = less growth inhibition
- Test Settings: 0.37 µM; 72 h
In this section we review reported normalised growth rate inhibition values for a set of molecules.
// return a plain number; no unit text

As a guide, the following entries are already answered.
O=C1c2c(O)ccc(O)c2C(=O)c2c(NCCNCCO)ccc(NCCNCCO)c21 | -0.0612
c1ccc2c(-c3cnn4cc(-c5ccc(N6CCNCC6)cc5)cnc34)ccnc2c1 | 0.897
COc1cc2c(Oc3ccc(NC(=O)C4(C(=O)Nc5ccc(F)cc5)CC4)cc3F)ccnc2cc1OCCCN1CCOCC1 | 0.381
O=C(Nc1cccc(Nc2ncc(Br)c(NCCc3cnc[nH]3)n2)c1)N1CCCC1 | 0.756
Cc1cnc(Nc2ccc(OCCN3CCCC3)cc2)nc1Nc1cccc(S(=O)(=O)NC(C)(C)C)c1 | 0.887
CN(c1ccccc1CNc1nc(Nc2ccc3c(c2)CC(=O)N3)ncc1C(F)(F)F)S(C)(=O)=O | 0.537
COc1cc(N2CCC(C(N)=O)CC2)ccc1Nc1nc(N)c(Cl)c(Nc2ccccc2S(=O)(=O)C(C)C)n1 | 0.885

// next entry
Query block: Hi! What's the reported normalised growth rate inhibition for CN1CCN(CCOc2cc(OC3CCOCC3)c3c(Nc4c(Cl)ccc5c4OCO5)ncnc3c2)CC1 on HS578T?
Result block: 0.828
